Recorded Fold reduction in Imipenem MIC in the presence of compounds (μg/mL) 4 by entry
Test system: Klebsiella pneumoniae ATCC BAA-2146
measurement.protocol: Checkerboard synergy assay in combination with Imipenem
Format: cell-based
measurement.setup: compound at 4 μg/mL; K. pneumoniae ATCC BAA-2146
Response body: numeric value in fold, unit text excluded.

Recorded Fold reduction in Imipenem MIC in the presence of compounds (μg/mL) 4, per entry:
smiles.code	subject.of.test	reported.value
O=C(O)c1[nH]c2c(c1-c1cc(F)cc(Cl)c1)CCc1ccccc1-2	Klebsiella pneumoniae ATCC BAA-2146	4
O=C(O)c1[nH]c2c(c1-c1cncc(Cl)c1)CCc1ccccc1-2	Klebsiella pneumoniae ATCC BAA-2146	4

Suppose we examine the compound O=C(O)c1[nH]c2c(c1-c1ccc(F)c(F)c1)CCc1ccccc1-2 ; what Fold reduction in Imipenem MIC in the presence of compounds (μg/mL) 4 value has been reported?
2

Suppose we examine the compound O=C(O)c1[nH]c2c(c1-c1ccccc1Cl)CCc1ccccc1-2 ; what Fold reduction in Imipenem MIC in the presence of compounds (μg/mL) 4 value has been reported?
4

Suppose we examine the compound COc1ccc(Cl)cc1-c1c(C(=O)O)[nH]c2c1CCc1ccccc1-2 ; what Fold reduction in Imipenem MIC in the presence of compounds (μg/mL) 4 value has been reported?
4

---

subject.of.test: UniProt P52699
Sequence (P52699 19-246, looked up, species assumed): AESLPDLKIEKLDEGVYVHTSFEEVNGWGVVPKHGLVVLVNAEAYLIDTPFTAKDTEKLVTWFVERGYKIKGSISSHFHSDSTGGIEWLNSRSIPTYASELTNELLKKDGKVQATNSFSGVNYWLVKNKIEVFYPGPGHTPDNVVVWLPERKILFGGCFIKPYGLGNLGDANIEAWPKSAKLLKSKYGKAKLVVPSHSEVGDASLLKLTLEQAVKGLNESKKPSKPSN
measurement.protocol: Enzyme activity: IC50 in fluorescence assay with cephalosporin substrate FC5
Format: biochemical
measurement.setup: 100 pM IMP-1, 10 μM FC5, 10 min pre-incubation
Protocol: The Class B beta-lactamases activities were measured in the presence of the test inhibitors in a fluorescence assay against an in-house synthesized fluorescent cephalosporin substrate FC5 (Berkel, et. al. J. Med. Chem. 2013, 56(17), 6945). […] The test inhibitors were incubated with the MBL enzyme for 10 min at room temperature, followed by addition the substrate and the fluorescence was recorded immediately (λex 380 nm, λem 460 nm) on a microplate reader. […]
property.label: log10 of IC50 (log10 of the value in µM)
Scale: decimal log of IC50, IC50 in µM.

Recorded log10 of IC50, per entry:
smiles.code	log10 of IC50
CC(C)(C)c1ccc(-c2c(C(=O)O)[nH]c3c2CCc2ccccc2-3)cc1	1.86
O=C(O)c1[nH]c2c(c1-c1cncc(F)c1)CCc1ccccc1-2	0.57
O=C(O)c1[nH]c2c(c1-c1ccccc1F)CCc1ccccc1-2	0.13
O=C(O)c1[nH]c2c(c1-c1cccc(F)c1F)CCc1ccccc1-2	0.52
Cc1ccc(-c2c(C(=O)O)[nH]c3c2CCc2ccccc2-3)c(F)c1	0.31
O=C(O)c1[nH]c2c(c1-c1ccccc1Cl)CCc1ccccc1-2	0.04
COc1cc(F)ccc1-c1c(C(=O)O)[nH]c2c1CCc1ccccc1-2	0.43
COc1cc(OC)cc(-c2c(C(=O)O)[nH]c3c2CCc2ccccc2-3)c1	-0.31
COc1ccc(F)cc1-c1c(C(=O)O)[nH]c2c1CCc1ccccc1-2	-1.02
COc1ccc(-c2c(C(=O)O)[nH]c3c2CCc2ccccc2-3)cc1	1.26

Suppose we examine the compound O=C(O)c1[nH]c2c(c1-c1cncc(Cl)c1)CCc1ccccc1-2 ; what log10 of IC50 value has been reported?
0.13

Suppose we examine the compound O=C(O)c1[nH]c2c(c1-c1ccc(F)c(F)c1)CCc1ccccc1-2 ; what log10 of IC50 value has been reported?
0.59

Suppose we examine the compound COc1ccccc1-c1c(C(=O)O)[nH]c2c1CCc1ccccc1-2 ; what log10 of IC50 value has been reported?
0.26

Suppose we examine the compound O=C(O)c1[nH]c2c(c1-c1ccncc1)CCc1ccccc1-2 ; what log10 of IC50 value has been reported?
1.05

Suppose we examine the compound O=C(O)c1[nH]c2c(c1-c1ccccc1)CCc1ccccc1-2 ; what log10 of IC50 value has been reported?
0.61

Suppose we examine the compound O=C(O)c1[nH]c2c(c1-c1cc(Cl)cc(Cl)c1)CCc1ccccc1-2 ; what log10 of IC50 value has been reported?
-1.59
